target: TrkA (Homo sapiens); construct: purchased MBL International (CycLex) CY-1091; assay: TrkA inhibitory activity, CycLex TrkA kinase assay/inhibitor screening kit; assay type: biochemical; details: compound 1 μM, read-out: % inhibition rate (based on 1 μM)
Sequence (P04629 33-796): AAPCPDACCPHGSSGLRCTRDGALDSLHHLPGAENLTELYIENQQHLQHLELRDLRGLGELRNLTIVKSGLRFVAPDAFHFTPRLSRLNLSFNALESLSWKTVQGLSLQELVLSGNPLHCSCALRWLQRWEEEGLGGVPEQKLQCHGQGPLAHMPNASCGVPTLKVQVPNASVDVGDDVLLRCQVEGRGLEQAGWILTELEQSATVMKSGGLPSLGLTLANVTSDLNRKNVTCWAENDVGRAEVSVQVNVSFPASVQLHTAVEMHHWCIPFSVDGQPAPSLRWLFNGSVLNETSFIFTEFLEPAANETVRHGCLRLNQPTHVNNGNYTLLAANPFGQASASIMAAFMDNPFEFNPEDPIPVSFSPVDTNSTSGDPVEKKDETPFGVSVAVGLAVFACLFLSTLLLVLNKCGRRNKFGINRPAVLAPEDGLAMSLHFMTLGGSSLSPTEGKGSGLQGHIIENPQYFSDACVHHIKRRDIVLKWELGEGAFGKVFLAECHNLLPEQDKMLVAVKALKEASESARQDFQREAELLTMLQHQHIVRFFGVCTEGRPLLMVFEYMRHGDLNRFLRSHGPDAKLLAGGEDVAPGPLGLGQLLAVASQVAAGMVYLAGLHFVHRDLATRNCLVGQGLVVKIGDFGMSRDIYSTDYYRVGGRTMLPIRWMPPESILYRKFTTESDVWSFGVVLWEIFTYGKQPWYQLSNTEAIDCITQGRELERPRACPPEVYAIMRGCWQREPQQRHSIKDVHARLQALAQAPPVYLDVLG
Dear colleague, classification is by inhibition at 1 µM, with ranges listed here: class 0 (below 20%), class 1 (20% to below 80%), class 2 (80% or more)

Query :: Hi, small favor: classify "Oc1c(Cl)cc(-c2c[nH]c3ncnc(-c4cnn(C5CCNCC5)c4)c23)cc1Cl" by its inhibition at 1 µM when you get a moment.
Result :: class 2

Query :: Now try "CN1CCN(c2ccc(C(=O)Nc3c[nH]c4ncnc(-c5cnn(C6CCN(C(=O)OC(C)(C)C)CC6)c5)c34)cc2)CC1" .
Result :: class 1

Query :: Now try "Clc1cc(Cl)cc(Nc2n[nH]c3ncc(-c4cnn(C5CCNCC5)c4)cc23)c1" .
Result :: class 1

Query :: Now try "CN1CCN(c2ccc(C(=O)Nc3c[nH]c4ncnc(N5CCC(N6CCCC6)CC5)c34)cc2)CC1" .
Result :: class 0

Query :: Now try "O=C(Nc1n[nH]c2ncc(-c3cnn(C4CCNCC4)c3)cc12)c1ccc(F)cc1" .
Result :: class 2

Query :: Now try "Cn1cc(-c2cnc3[nH]nc(Nc4cc(Cl)cc(Cl)c4)c3c2)cn1" .
Result :: class 1

Query :: Now try "CN1CCN(c2ccc(C(=O)Nc3c[nH]c4ncnc(-c5cnn(C6CCNCC6)c5)c34)cc2)CC1" .
Result :: class 0

Query :: Now try "Clc1cc(Cl)cc(Nc2n[nH]c3cnc(-c4cnn(C5CCNCC5)c4)cc23)c1" .
Result :: class 0

Query :: Now try "CN1CCN(c2ccc(C(=O)Nc3n[nH]c4ncc(-c5ccncc5)cc34)cc2)CC1" .
Result :: class 2

Query :: Now try "COc1ccc(Cn2cc(NC(=O)c3ccc(N4CCN(C)CC4)cc3)c3c(-c4cnn(C5CCNCC5)c4)ncnc32)cc1" .
Result :: class 0

Query :: Now try "CN1CCN(c2ccc(C(=O)Nc3n[nH]c4ncc(Br)cc34)cc2)CC1" .
Result :: class 2

Query :: Now try "Cn1cc(-c2cnc3[nH]nc(Nc4ccc(Cl)c(Cl)c4)c3c2)cn1" .
Result :: class 1

Query :: Now try "CN1CCN(c2ccc(C(=O)Nc3c[nH]c4ncnc(-c5cc(Cl)c(O)c(Cl)c5)c34)cc2)CC1" .
Result :: class 1

Query :: Now try "CN1CCN(c2ccc(C(=O)Nc3n[nH]c4ncc(-c5ccc(F)cc5)cc34)cc2)CC1" .
Result :: class 2

Query :: Now try "Clc1ccc(Nc2n[nH]c3cnc(-c4cnn(C5CCNCC5)c4)cc23)cc1Cl" .
Result :: class 0

====

target: TrkC (Homo sapiens, UniProt Q16288); construct: host or cells: U2OS; assay: PathHunter eXpress TrkC functional assay kit (U2OS cells, agonist NT-3); format: cell-based; conditions: compound 1 μM, read-out: TrkC % inhibition rate (based on 1 μM)
Sequence (Q16288 32-839): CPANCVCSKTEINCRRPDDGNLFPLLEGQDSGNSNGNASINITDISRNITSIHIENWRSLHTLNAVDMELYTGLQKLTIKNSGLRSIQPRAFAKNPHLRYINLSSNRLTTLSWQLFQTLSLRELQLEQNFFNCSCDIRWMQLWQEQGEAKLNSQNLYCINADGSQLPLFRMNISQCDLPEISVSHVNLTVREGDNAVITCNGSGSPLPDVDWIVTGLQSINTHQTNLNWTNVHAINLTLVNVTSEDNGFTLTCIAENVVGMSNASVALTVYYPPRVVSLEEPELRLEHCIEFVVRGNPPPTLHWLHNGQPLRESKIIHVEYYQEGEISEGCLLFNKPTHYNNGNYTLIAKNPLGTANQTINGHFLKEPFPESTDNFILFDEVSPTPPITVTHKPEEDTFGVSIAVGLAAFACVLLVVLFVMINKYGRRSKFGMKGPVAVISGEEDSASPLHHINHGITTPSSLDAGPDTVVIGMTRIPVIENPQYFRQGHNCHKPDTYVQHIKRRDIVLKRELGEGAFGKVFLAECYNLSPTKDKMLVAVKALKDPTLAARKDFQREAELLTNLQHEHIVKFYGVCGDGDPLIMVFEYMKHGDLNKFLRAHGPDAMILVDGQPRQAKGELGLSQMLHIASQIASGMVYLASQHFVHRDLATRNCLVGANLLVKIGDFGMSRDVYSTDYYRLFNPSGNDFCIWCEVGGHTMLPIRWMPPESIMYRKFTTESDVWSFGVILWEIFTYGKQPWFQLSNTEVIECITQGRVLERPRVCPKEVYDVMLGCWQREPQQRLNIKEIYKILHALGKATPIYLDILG
Would you kindly list inhibition at 1 µM for each of these compounds?
# output: number + unit

Query :: Hello, I am looking for reported inhibition at 1 µM with TrkC (Homo sapiens, UniProt Q16288) for "CN1CCN(c2ccc(C(=O)Nc3n[nH]c4ncc(-c5ccc(F)cc5)cc34)cc2)CC1" . Could you help?
Result :: 9%

Query :: Now try "CN1CCN(c2ccc(C(=O)Nc3n[nH]c4ncc(-c5ccncc5)cc34)cc2)CC1" .
Result :: 0%

Query :: Now try "CN1CCN(c2ccc(C(=O)Nc3n[nH]c4ncc(-c5ccccc5)cc34)cc2)CC1" .
Result :: 49%

Query :: Now try Oc1c(Cl)cc(-c2c[nH]c3ncnc(NC4CCC(O)CC4)c23)cc1Cl (centres unmarked) .
Result :: 15%

Query :: Now try "Oc1c(Cl)cc(-c2c[nH]c3ncnc(-c4cnn(C5CCNCC5)c4)c23)cc1Cl" .
Result :: -16%

Query :: Now try "CC(C)NC(=O)Nc1cccc(-c2cnc3[nH]nc(NC(=O)c4ccc(N5CCN(C)CC5)cc4)c3c2)c1" .
Result :: -20%

Query :: Now try "O=C(Nc1n[nH]c2ncc(-c3cnn(C4CCNCC4)c3)cc12)c1ccc(F)cc1" .
Result :: 20%

Query :: Now try "CN1CCN(c2ccc(C(=O)Nc3n[nH]c4ncc(Br)cc34)cc2)CC1" .
Result :: -20%
